The values you see were collected from ChEMBL document CHEMBL5614393.

tested on: MCF7; test: Antiproliferative activity against human MCF7 cells; assay type: functional, cell-based
value type: IC50 (µM)

1) COc1ccc(C2=NN(C(N)=S)C(c3ccc(Cl)cc3)C2)cc1 (stereo unspecified) : 9.37

* * *

// values below are reported pIC50
test: Inhibition of urease (unknown origin)
pIC50: −log10 of the molar value.
value type: pIC50

1) COc1ccc(NC(=S)N2CCc3ccccc3C2)cc1 : 4.95
2) FC(F)(F)c1ccc(NC(=S)N2CCc3ccccc3C2)cc1 : 4.95
3) O=C(O)c1cn(C2CC2)c2cc(N3CCN(C(=S)c4cccc([N+](=O)[O-])c4)CC3)c(F)cc2c1=O : 5.23
4) O=C(O)c1cn(C2CC2)c2cc(N3CCN(C(=S)c4cccc(F)c4)CC3)c(F)cc2c1=O : 5.39
5) O=C(O)c1cn(C2CC2)c2cc(N3CCN(C(=S)c4ccc([N+](=O)[O-])cc4)CC3)c(F)cc2c1=O : 5.69
6) Cc1cccc(C)c1NC(=S)N1CCc2ccccc2C1 : 4.95

* * *

tested on: SARS-CoV-2; assay: Antiviral activity against SARS-CoV-2 infected in African green monkey Vero E6 cells incubated for 48 hrs by plaque reduction assay; assay type: functional, organism-based; conditions: Severe acute respiratory syndrome coronavirus 2, Vero C1008, 48 h
pEC50: −log10 of the molar value.
// values below are reported pEC50
value type: pEC50

1. COc1ccc(F)c2[nH]c(C(=O)N[C@@H](CC(C)C)C(=O)N[C@@H](C[C@@H]3CCNC3=O)C(=O)c3nc4c(F)cccc4s3)cc12 : 6.54
2. COc1cccc2[nH]c(C(=O)N[C@@H](CC(C)C)C(=O)N[C@@H](C[C@@H]3CCNC3=O)C(=O)c3nc4ccccc4s3)cc12 : 6.54
3. COc1ccc(F)c2[nH]c(C(=O)N[C@@H](CC(C)C)C(=S)N[C@@H](C[C@@H]3CCNC3=O)C(=O)c3nc4c(F)cccc4s3)cc12 : 6.47
4. CC(C)(C)[C@H](NC(=O)C(F)(F)F)C(=O)N1C[C@H]2[C@@H]([C@H]1C(=O)N[C@H](C#N)C[C@H]1CCNC1=O)C2(C)C : 6.03

* * *

Target: NAD-dependent protein deacetylase sirtuin-3, mitochondrial (Homo sapiens, UniProt Q9NTG7)
Sequence (Q9NTG7 whole entry): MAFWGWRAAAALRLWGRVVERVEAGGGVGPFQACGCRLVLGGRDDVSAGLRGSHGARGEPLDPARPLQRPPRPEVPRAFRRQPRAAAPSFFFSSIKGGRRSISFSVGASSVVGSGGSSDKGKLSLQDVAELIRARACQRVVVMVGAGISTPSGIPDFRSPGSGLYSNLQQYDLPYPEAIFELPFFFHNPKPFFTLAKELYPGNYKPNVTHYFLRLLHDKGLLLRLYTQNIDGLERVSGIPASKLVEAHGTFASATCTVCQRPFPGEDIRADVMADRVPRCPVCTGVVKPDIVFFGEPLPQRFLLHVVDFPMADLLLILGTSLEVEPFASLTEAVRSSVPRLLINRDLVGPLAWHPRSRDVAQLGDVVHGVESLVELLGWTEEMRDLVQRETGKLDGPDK
pIC50: −log10 of the molar value.
value type: pIC50

1. CCCCCCCCCCCCCC(=S)NCCCCC(NC(=O)OCc1ccccc1)C(=O)Nc1ccccc1 (stereo unspecified) : < 3.70

* * *

test: AUClast in mouse at 40 mg/kg, ip; type: ADME, organism-based; conditions: in vivo
value type: AUClast (µg·h/mL)

1) Cc1cc(C)nc(NC(=S)N2CCN(Cc3ccc(C(F)(F)F)cc3)CC2)c1 : 147

* * *

// values below are reported half-life
experiment: Half life in mouse; format: ADME, organism-based; conditions: in vivo
value type: half-life

1) CCCCCCCCCCCCNC(=S)NCCCC[C@H](NS(C)(=O)=O)C(=O)N[C@H](C)C(=O)NCCCCNC(=N)N : < 2 h
2) CCCCCCCCCCCCCC(=S)NCCCC[C@H](NS(C)(=O)=O)C(=O)N[C@H](C)C(=O)NCCCCNC(=N)N : > 2 h

* * *

biological target: Carbonic anhydrase 1 (Homo sapiens)
Sequence (P00915 whole entry): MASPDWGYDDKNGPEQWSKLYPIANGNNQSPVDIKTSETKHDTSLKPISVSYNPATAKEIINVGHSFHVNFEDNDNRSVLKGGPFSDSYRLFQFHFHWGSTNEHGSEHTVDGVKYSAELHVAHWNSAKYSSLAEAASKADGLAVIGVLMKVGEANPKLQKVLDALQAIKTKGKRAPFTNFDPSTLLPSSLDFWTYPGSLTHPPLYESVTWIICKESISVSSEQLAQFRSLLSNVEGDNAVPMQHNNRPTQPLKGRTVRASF
pIC50: −log10 of the molar value.
value type: pIC50

1) COc1ccc(-c2cc(-c3ccc(N)cc3)nn2C(N)=S)cc1OC : 8.29

* * *

target: NAD-dependent protein deacetylase sirtuin-2 (Homo sapiens, UniProt Q8IXJ6); test: Inhibition of C-terminal His-tagged SIRT2 (50 to 356 residues) (unknown origin) using Ac-Glu-Thr-Asp-Lys(Myr)-AMC as substrate by fluorescence based analysis
Sequence (Q8IXJ6 whole entry, the tested form may be a part): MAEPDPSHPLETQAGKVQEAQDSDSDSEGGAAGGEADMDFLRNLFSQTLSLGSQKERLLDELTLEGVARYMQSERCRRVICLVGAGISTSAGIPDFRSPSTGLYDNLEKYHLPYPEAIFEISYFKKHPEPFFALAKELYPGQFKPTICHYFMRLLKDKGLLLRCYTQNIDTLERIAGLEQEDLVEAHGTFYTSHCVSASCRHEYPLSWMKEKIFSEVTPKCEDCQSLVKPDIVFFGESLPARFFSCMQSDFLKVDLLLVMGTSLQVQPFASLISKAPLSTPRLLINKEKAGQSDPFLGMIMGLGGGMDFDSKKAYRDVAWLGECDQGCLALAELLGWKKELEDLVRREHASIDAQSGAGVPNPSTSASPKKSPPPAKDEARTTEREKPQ
value type: IC50 (µM)

1. CCCCCCCCCCCCNC(=S)NCCCC[C@H](NS(C)(=O)=O)C(=O)N[C@H](C)C(=O)NCCCCNC(=N)N : 0.1
2. CCCCCCCCCCCCCC(=S)NCCCC[C@H](NS(C)(=O)=O)C(=O)N[C@H](C)C(=O)NCCCCNC(=N)N : 0.09

* * *

test system: HCT-116; test: Antiproliferative activity against human HCT-116 cells; assay type: functional, cell-based
pIC50: −log10 of the molar value.
value type: pIC50

1) COc1ccc(C2=NN(C(N)=S)C(c3ccc(Cl)cc3)C2)cc1 (stereo unspecified) : 5.23

* * *

test system: HepG2; experiment: Antiproliferative activity against human HepG2 cells; assay type: functional, cell-based
pIC50: −log10 of the molar value.
value type: pIC50

1. COc1ccc(C2=NN(C(N)=S)C(c3ccc(Cl)cc3)C2)cc1 (stereo unspecified) : 5.22
